Please provide measured cytotoxicity at 10 µM for the entries that follow.
Method Description: Toxicity liver stage against HepG2, at 10uM
Type: cell-based
Design: test concentration 10 uM, cell line HepG2-A16-CD81EGFP
Experimental Setup: human, HepG2-A16-CD81EGFP cells; read-out: INHIBITION
One number for each entry, in %.

CCN(Cc1ccco1)C(C)c1nc(C(C)C)no1 (centres undefined) :: 15.6

Could you tell me cytotoxicity at 10 µM for each of these compounds? They are listed below.
1. CCC(NC(=O)NCc1cccc(N(C)C)n1)c1cccs1 (centres undefined)
2. COC(=O)COc1nc(CC(C)C)c2c(c1C#N)CCCC2
3. Cc1cc(-c2nn(C)c(Cl)c2CN2CC[C@@](O)(C3CCC3)[C@H](C)C2)no1
4. CS(=O)(=O)c1cc(Cl)cnc1C1CCN(C(=O)C2CCOCC2)CC1

Output line:
1: 17.9; 2: 21.5; 3: -7.23; 4: 4.07

Could you tell me cytotoxicity at 10 µM for each of these compounds? They are listed below.
1. O=c1[nH]c2cc3c(cc2cc1CN1CCCC1c1ccccn1)OCO3 (centres undefined)
2. CCN(CC)c1ccc(-c2nc(-c3cccc(OC)c3OC)no2)cn1
3. CC(=O)NCCCNCc1c(C)nn(CC(C)C)c1N(C)C
4. COCCN(Cc1ccc(F)cc1Cl)C(=O)c1cc(C)no1
5. Cc1cnn(C2CCCN(C(=O)CCCOc3cccc(F)c3)C2)c1 (centres undefined)
6. CCn1ccc(-c2cc(NCCCOc3cccc(C)c3)nc(C)n2)n1
7. Cc1cccc(OC2CCN(C(=O)NCc3cc[nH]n3)CC2)c1C

Output line:
-4.5
20
6.47
8.75
6.71
-5.65
7.41

Could you tell me cytotoxicity at 10 µM for each of these compounds? They are listed below.
1. CS(=O)(=O)N[C@@H]1CCO[C@]2(CCN(C(=O)c3cnccn3)C2)C1
2. CN(C)c1ccccc1C(=O)N1CCOC2(CNCCOC2)C1 (centres undefined)

Output line:
1: 1.98; 2: -1.08

###

Method Description: Toxicity liver stage against HepG2, at 10uM
Assay type: cell-based
Design: test concentration 10 uM, cell line HepG2-A16-CD81EGFP
Experimental Setup: human, HepG2-A16-CD81EGFP cells; read-out: INHIBITION
Mark each entry T if its cytotoxicity at 10 µM sits below -10%, and F for all others.

CN(C(=O)c1ccn(C)n1)[C@@H]1CCC[C@@H](Oc2ccccc2)[C@@H]1O :: T

In the following, a different molecule is considered.
Input line: Hello, is cytotoxicity at 10 µM of the following molecule strictly smaller than -10%? CSC1(CNC(=O)N(C)Cc2ccc(Cl)s2)CCOCC1
Output line: F

###

Method Description: Toxicity liver stage against HepG2, at 10uM
Assay type: cell-based
Design: test concentration 10 uM, cell line HepG2-A16-CD81EGFP
Experimental Setup: human, HepG2-A16-CD81EGFP cells; read-out: INHIBITION
Please provide measured cytotoxicity at 10 µM for the entries that follow.
Answers are plain numbers, in %.

Cc1nc(C)n(CC2CCCN2CC(=O)NCCc2cccs2)n1 (stereo not drawn) :: -0.749
Cc1ccccc1-n1cnnc1SCC(=O)NCC1CCCO1 (stereo not drawn) :: -1.15

Input line: Return the recorded cytotoxicity at 10 µM value; entry: COc1cc(OC)cc(-c2noc(CN)n2)c1
Output line: 20.6
